All values here come from patent US10344024B2.

Data export: pIC50 values recorded with GST-tagged ROR gamma ligand binding domain (LBD) (Homo sapiens, UniProt P51449).
pIC50: −log10 of the molar value.

CCC(F)(F)c1ccc(CC(=O)Nc2ccc(-c3nccnc3-c3ccccc3Cl)cc2)cc1 = > 7.30

Please give pIC50 for each item listed below.
1. CCC(F)(F)c1ccc(CC(=O)Nc2ccc(-c3nccnc3OCc3ccccc3)cc2)cc1
2. CCC(F)(F)c1ccc(CC(=O)Nc2ccc(-c3nccnc3N3CCN(C4COC4)CC3)cc2)cc1
3. CC(O)C(F)(F)c1ccc(CC(=O)Nc2ccc(-c3nccnc3OCc3ccccc3Cl)cc2)cc1 (centres unmarked)

1. 7.00 to 7.30
2. 7.00 to 7.30
3. > 7.30

Can you give me pIC50 for all of these, one by one?
1. CC(O)C(F)(F)c1ccc(CC(=O)Nc2ccc(-c3nccnc3-c3ccc(F)c(F)c3)cc2)cc1 (centres unmarked)
2. Cc1ncsc1CCOc1nccnc1-c1ccc(NC(=O)Cc2ccc(C(F)(F)C(C)O)cc2)cc1 (centres unmarked)
3. CCC(F)(F)c1ccc(CC(=O)Nc2ccc(-c3nccnc3O[C@@H](C)c3ccccc3Cl)cc2)cc1
4. CCC(F)(F)c1ccc(CC(=O)Nc2ccc(-c3nccnc3N(C)[C@H](C)c3ccccc3)cc2)cc1

< 6.30
7.00 to 7.30
6.30 to 7.00
6.30 to 7.00

###

- TARGET UNDER TEST: GST-tagged ROR gamma ligand binding domain (LBD) (Homo sapiens, UniProt P51449)
- Sequence (P51449 269-508 limits assumed): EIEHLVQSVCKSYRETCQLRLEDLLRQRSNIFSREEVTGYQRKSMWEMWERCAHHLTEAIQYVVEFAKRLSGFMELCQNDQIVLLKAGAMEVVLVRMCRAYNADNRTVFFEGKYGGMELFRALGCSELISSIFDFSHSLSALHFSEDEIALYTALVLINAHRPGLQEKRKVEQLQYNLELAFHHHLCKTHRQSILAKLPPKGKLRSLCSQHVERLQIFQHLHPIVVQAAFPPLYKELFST
EXPERIMENTAL READOUT: IC50

CCC(F)(F)c1ccc(CC(=O)Nc2ccc(-c3nccnc3-c3ccc(C)cc3C)cc2)cc1 [Example 47] = < 50 nM
CCC(F)(F)c1ccc(CC(=O)Nc2ccc(-c3nccnc3-c3ccc(F)cc3Cl)cc2)cc1 [Example 45] = < 50 nM
CCC(F)(F)c1ccc(CC(=O)Nc2ccc(-c3ncccc3-c3ccccc3Cl)cc2)cc1 [Example 30] = < 50 nM
Cc1noc(C)c1CCOc1nccnc1-c1ccc(NC(=O)Cc2ccc(C(F)(F)C(C)O)cc2)cc1 (stereo not drawn) [Example 90] = < 50 nM

For each of the items listed, what is its IC50?
1. CCC(F)(F)c1ccc(CC(=O)Nc2ccc(-c3nccnc3-c3ccc(C(F)(F)F)cc3)cc2)cc1 [Example 12]
2. CC(O)C(F)(F)c1ccc(CC(=O)Nc2ccc(-c3nccnc3N[C@@H](C)c3ccccc3Cl)cc2)cc1 (stereo partly drawn) [Example 68]
3. CCC(F)(F)c1ccc(CC(=O)Nc2ccc(-c3nccnc3-c3ccc(C)cc3)cc2)cc1 [Example 13]
4. CC(O)C(F)(F)c1ccc(CC(=O)Nc2ccc(-c3nccnc3OCc3ccccc3)cc2)cc1 (stereo not drawn) [Example 78]

< 50 nM
< 50 nM
< 50 nM
< 50 nM

For every item in the list below, what is its measured IC50?
1. CC(O)C(F)(F)c1ccc(CC(=O)Nc2ccc(-c3nccnc3N[C@@H](C)c3ccccc3Cl)cc2F)cc1 (stereo partly drawn) [Example 73]
2. Cc1ccc([C@@H](C)Oc2nccnc2-c2ccc(NC(=O)Cc3ccc(C(F)(F)C(C)O)cc3)cc2)c(Cl)c1 (stereo partly drawn) [Example 88]
3. Cc1ccc(-c2nccnc2-c2ccc(NC(=O)Cc3ccc(C(F)(F)C(C)O)cc3)cc2)c(C)c1 (stereo not drawn) [Example 51]
4. CCC(F)(F)c1ccc(CC(=O)Nc2ccc(-c3nccnc3-c3ccccc3F)cc2)cc1 [Example 11]
5. CC(O)C(F)(F)c1ccc(CC(=O)Nc2ccc(-c3nccnc3N[C@@H](C)c3ccc(Cl)cc3)cc2)cc1 (stereo partly drawn) [Example 72]

1: 100 to 500 nM; 2: < 50 nM; 3: < 50 nM; 4: < 50 nM; 5: < 50 nM

Provide reported IC50 for each item, in the same order as listed.
1. Cc1ccc([C@@H](C)Oc2nccnc2-c2ccc(NC(=O)Cc3ccc(C(F)(F)C(C)O)cc3)cc2)c(C)c1 (stereo partly drawn) [Example 98]
2. CCC(F)(F)c1ccc(CC(=O)Nc2ccc(-c3nccnc3N[C@@H](C)c3ccc(F)cc3Cl)cc2)cc1 [Example 70]
3. CCC(F)(F)c1ccc(CC(=O)Nc2ccc(-n3nc(C(F)(F)F)cc3-c3ccccc3Cl)cc2)cc1 [Example 29]
4. CC(O)C(F)(F)c1ccc(CC(=O)Nc2ccc(-c3nccnc3O[C@H](C)c3ccccc3Cl)cc2)cc1 (stereo partly drawn) [Example 84]

1: < 50 nM; 2: < 50 nM; 3: < 50 nM; 4: 50 to 100 nM

###

- TARGET UNDER TEST: GST-tagged ROR gamma ligand binding domain (LBD) (Homo sapiens)
- Construct: purchased Invitrogen
- METHOD NOTES: TR-FRET assay for ROR gamma (LanthaScreen co-activator peptide recruitment)
- Type: biochemical
- PROTOCOL CONDITIONS: compound concentration 10 μM; TR-FRET ratio 520/495, percent of control
Threshold-based label: inhibition at 10 µM under 80% gives True, inhibition at 10 µM not under 80% gives False.

Use the examples below as a reference point.
CCC(F)(F)c1ccc(CC(=O)Nc2ccc(-c3nccnc3N(C)[C@H](C)c3ccccc3)cc2)cc1 = False
CCC(F)(F)c1ccc(CC(=O)Nc2ccc(-c3nccnc3OCc3ccccc3)cc2)cc1 = False
CC(O)C(F)(F)c1ccc(CC(=O)Nc2ccc(-c3cnn(C(C)(C)C)c3-c3ccc(F)cc3)cc2)cc1 (centres unmarked) = True

Please indicate whether the reported inhibition at 10 µM of CCC(F)(F)c1ccc(CC(=O)Nc2ccc(-c3nccnc3N3CCN(C(C)=O)CC3)cc2)cc1 is strictly below 80%.
False

For CCC(F)(F)c1ccc(CC(=O)Nc2ccc(-c3nccnc3N3CCN(CCOC)CC3)cc2)cc1 , is the recorded inhibition at 10 µM below the cut-off of 80%?
True

Report whether reported inhibition at 10 µM is lower than 80% (strictly) for CCC(F)(F)c1ccc(CC(=O)Nc2ccc(-c3nccnc3-c3cnn(C)c3)cc2)cc1
True

Please indicate whether the reported inhibition at 10 µM of CC(O)C(F)(F)c1ccc(CC(=O)Nc2ccc(-c3nccnc3N[C@@H](C)c3ccccc3Cl)cc2)cc1 (some centres unmarked) is strictly below 80%.
False

###

Kindly supply the reported inhibition at 10 µM values for the records listed here.
- TARGET UNDER TEST: GST-tagged ROR gamma ligand binding domain (LBD) (Homo sapiens, UniProt P51449)
- Construct: purchased Invitrogen
- METHOD NOTES: TR-FRET assay for ROR gamma (LanthaScreen co-activator peptide recruitment)
- Assay type: biochemical
- PROTOCOL CONDITIONS: compound concentration 10 μM; TR-FRET ratio 520/495, percent of control
Answers are plain numbers, in %.

CCC(F)(F)c1ccc(CC(=O)Nc2ccc(-c3ncccc3-c3ccccc3Cl)cc2)cc1 = 82.5
Cc1ccc([C@H](C)Nc2nccnc2-c2ccc(NC(=O)Cc3ccc(C(F)(F)C(C)O)cc3)cc2)c(C)c1 (stereo partly shown) = 95.4
CCC(F)(F)c1ccc(CC(=O)Nc2ccc(-c3nccnc3-c3ccc(Cl)cc3Cl)cc2)cc1 = 83

Could you report inhibition at 10 µM for every entry in the following list?
1. CCC(F)(F)c1ccc(CC(=O)Nc2ccc(-c3nccnc3-c3ccc(F)cc3F)cc2)cc1
2. CCC(F)(F)c1ccc(CC(=O)Nc2ccc(-c3nccnc3-c3ccc(F)cc3Cl)cc2)cc1
3. CCC(F)(F)c1ccc(CC(=O)Nc2ccc(-c3nccnc3N[C@@H](C)c3ccc(Cl)cc3)cc2)cc1
4. Cc1ccc([C@@H](C)Oc2nccnc2-c2ccc(NC(=O)Cc3ccc(C(F)(F)C(C)O)cc3)cc2)c(C)c1 (stereo partly shown)

1: 83; 2: 80.8; 3: 91.2; 4: 89

###

Would you mind telling me the reported pIC50 of each entry?
- TARGET UNDER TEST: GST-tagged ROR gamma ligand binding domain (LBD) (Homo sapiens)
- Sequence (P51449 269-508 limits assumed): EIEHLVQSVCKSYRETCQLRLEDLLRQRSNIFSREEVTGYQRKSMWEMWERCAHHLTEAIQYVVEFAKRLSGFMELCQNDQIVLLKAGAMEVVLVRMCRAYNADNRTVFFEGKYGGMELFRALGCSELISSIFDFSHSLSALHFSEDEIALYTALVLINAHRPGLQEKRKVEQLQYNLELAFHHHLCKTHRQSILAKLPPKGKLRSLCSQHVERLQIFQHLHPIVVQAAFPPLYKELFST
pIC50: −log10 of the molar value.

Before answering, review these 3 worked examples.
CC(O)C(F)(F)c1ccc(CC(=O)Nc2ccc(-c3nccnc3OCC3CCCCC3)cc2)cc1 (stereo not shown) = 6.30 to 7.00
CCC(F)(F)c1ccc(CC(=O)Nc2ccc(-c3nccnc3-c3ccc(OC)cc3)cc2)cc1 = > 7.30
CCC(F)(F)c1ccc(CC(=O)Nc2ccc(-c3nccnc3O[C@H](C)c3ccccc3Cl)cc2)cc1 = 7.00 to 7.30

Sample CCC(F)(F)c1ccc(CC(=O)Nc2ccc(-c3nccnc3O[C@@H](C)c3ccccc3)cc2)cc1 — what was its pIC50?
6.30 to 7.00
